Listing of entries alongside the reported CMS %inh.
# Test system: CMS
# Parameters: species or system AML cell lines (8); Primary HTS, single concentration about 10 uM, Cell Titer Glo viability; log10 luminescence, per cent inhibition relative to cycloheximide control
# condition: 72 h, relative to cycloheximide control, log10 luminescence; inhibitor
Your answer is read as %, so omit the unit and give the number.

get_value(item= COc1ccc(CCN=C2NC(=O)/C(=C/c3ccc4ncccc4c3)S2)cc1 [SJ000580998-1] , readout=CMS %inh) returns -0.7764

get_value(item= Nc1nc(-c2ccc(F)cc2)c(-c2ccc3ncccc3n2)s1 [SJ000573357-1, R5931/120/1] , readout=CMS %inh) returns 0.9588

Continuing:
get_value(item= O=C(Nc1n[nH]c2nc(-c3ccco3)ccc12)C1CC1 [SJ000573271-1, VB100064-193A1] , readout=CMS %inh) returns 0.8699

---

Listing of entries alongside the reported EC50.
# Test system: MV4-11
# experiment: cells
# Set-up: species or system AML cell lines (8); Secondary HTS, 10-point dose-response in triplicate, Cell Titer Glo viability, four-parameter fit EC50
# condition: Homo sapiens, MV4-11, 72 h, read-out: MV4-11

Example cases with answers are listed next.
get_value(item= `COc1cc2c(NC3CCN(C)CC3)nc(N3CCCN(C)CC3)nc2cc1OCCOCCN(C)C` , readout=EC50) returns > 10 µM

get_value(item= `O=C(Nc1cc(Cl)cc2c1[nH]c1cnccc12)c1cccnc1` , readout=EC50) returns > 10 µM

Switching to the query record.
get_value(item= `CC(C)Oc1ccc(C(=O)N[C@H](CNC(=O)CN(C)C)Cc2ccc(-c3cn4cccc([C@H](C)O)c4n3)cc2)cc1Cl` , readout=EC50) returns > 10 µM

---

Listing of entries alongside the reported EC50.
# System: CMS
# experiment: Secondary dose-response HTS, Cell Titer Glo
# Type: cell-based, human
# condition: Homo sapiens, HTS, read-out: average effective concentration, CMS

get_value(item= `Cn1cc(-c2cnn3c(N)c(Br)c([C@@H]4CCCNC4)nc23)cn1` , readout=EC50) returns > 10 µM

get_value(item= C[C@H]1[C@@H](O)O[C@@H]2O[C@@]3(C)CC[C@H]4[C@H](C)CC[C@@H]1[C@@]24OO3 [DIHYDROARTEMISININ] , readout=EC50) returns > 10 µM

Switching to the query record.
get_value(item= COc1cc(C)c2c(Oc3cccc(C(F)(F)F)c3)c(OC)cc(NC(C)CCCN)c2n1 (stereo not drawn) , readout=EC50) returns > 10 µM

---

Listing of entries alongside the reported ML-2 %inh.
# System: ML-2
# Design: species or system AML cell lines (8); Primary HTS, single concentration about 10 uM, Cell Titer Glo viability; log10 luminescence, per cent inhibition relative to cycloheximide control
# condition: 72 h, relative to cycloheximide control, log10 luminescence; inhibitor
Your answer is read as %, so omit the unit and give the number.

Example cases with answers are listed next.
get_value(item= `O=C1NC(=NCCc2ccc(Cl)cc2)S/C1=C\c1ccc2ncccc2c1` , readout=ML-2 %inh) returns -0.5014

get_value(item= `Cn1c(=O)c(Oc2ccc(F)cc2F)cc2cnc(N[C@H]3CCOC3)nc21` , readout=ML-2 %inh) returns 0.08921

get_value(item= `CC(C)Nc1ncc2cc(Oc3ccc(F)cc3F)c(=O)n(C)c2n1` , readout=ML-2 %inh) returns 0.005285

Continuing:
get_value(item= CCOC(=O)C1=C[C@@H](OC(CC)CC)[C@H](NC(C)=O)[C@@H](N)C1 [SJ000555712-1, OSELTAMIVIR PHOSPHATE] , readout=ML-2 %inh) returns 3.111

get_value(item= `CN(C)/N=N/c1[nH]cnc1C(N)=O` , readout=ML-2 %inh) returns -0.5509

get_value(item= O=C(O)P(=O)(O)O [SJ000285291-3, FOSCARNET SODIUM] , readout=ML-2 %inh) returns -0.9621

get_value(item= `CCCc1cc(=O)[nH]c(=S)[nH]1` , readout=ML-2 %inh) returns 1.023

get_value(item= `Nc1nc(-c2ccc3c(c2)C(=Cc2cc(Br)c(O)c(Br)c2)C(=O)N3)cs1` , readout=ML-2 %inh) returns 0.7137

get_value(item= `N#CC[C@H](C1CCCC1)n1cc(-c2ncnc3[nH]ccc23)cn1` , readout=ML-2 %inh) returns 4.441

get_value(item= `O=c1[nH]c2nc(NC3CCOCC3)ncc2cc1Oc1ccc(F)cc1F` , readout=ML-2 %inh) returns -1.12

get_value(item= CC(=O)N[C@@H](Cc1ccc(OP(=O)(O)O)cc1)C(=O)N[C@H]1CCC(=O)N2CCC[C@@H](C(=O)NC3CCc4ccccc43)N2C1=O (some centres unmarked) , readout=ML-2 %inh) returns 0.02578

---

Listing of entries alongside the reported ML-2 %inh.
# System: ML-2
# Parameters: species or system AML cell lines (8); Primary HTS, single concentration about 10 uM, Cell Titer Glo viability; log10 luminescence, per cent inhibition relative to cycloheximide control
# condition: 72 h, relative to cycloheximide control, log10 luminescence; inhibitor
Your answer is read as %, so omit the unit and give the number.

get_value(item= `Nc1c(C(=O)c2cccc(OCCN3CCOCC3)c2)cnn1-c1ccc(F)cc1` , readout=ML-2 %inh) returns 2.31

get_value(item= CO[C@@]1(NC(=O)Cc2cccs2)C(=O)N2C(C(=O)O)=C(COC(N)=O)CS[C@@H]21 [SJ000285599-4, CEFOXITIN SODIUM] , readout=ML-2 %inh) returns -2.877

get_value(item= `Cn1c(=O)c(Oc2ccc(F)cc2F)cc2cnc(NCCS(C)(=O)=O)nc21` , readout=ML-2 %inh) returns -0.4027

get_value(item= COc1ccc2cc1Oc1cc3c(cc1OC)CC[N+](C)(C)[C@H]3Cc1ccc(cc1)Oc1c(OC)c(OC)cc3c1[C@@H](C2)[N+](C)(C)CC3 [SJ000565179-1, METOCURINE IODIDE] , readout=ML-2 %inh) returns -0.842

get_value(item= `CS(=O)(=O)Nc1ccc(-c2ccc3c(NC(=O)C4CC4)n[nH]c3c2)cc1` , readout=ML-2 %inh) returns 1.388

get_value(item= `Cn1cc(C2=C(c3cn(CCN)c4ccccc34)C(=O)NC2=O)c2ccccc21` , readout=ML-2 %inh) returns 0.3075

get_value(item= `CCn1c(-c2nonc2N)nc2ccccc21` , readout=ML-2 %inh) returns 2.051

get_value(item= `O=C(Nc1n[nH]c2nc(-c3ccco3)ccc12)C1CC1` , readout=ML-2 %inh) returns -0.1888

---

# System: MOLM-13
# Parameters: species or system AML cell lines (8); Primary HTS, single concentration about 10 uM, Cell Titer Glo viability; log10 luminescence, per cent inhibition relative to cycloheximide control
# condition: 72 h, relative to cycloheximide control, log10 luminescence; inhibitor
recorded.metric: MOLM-13 %inh (%)
Your answer is read as %, so omit the unit and give the number.

Example cases with answers are listed next.
`Cn1c(=O)c(Oc2cccc(F)c2)cc2cnc(NC3CCOCC3)nc21` on MOLM-13 gives MOLM-13 %inh = 93.55

`CN(C)CC#Cc1cccc(C(=O)c2cnn(-c3ccc(F)cc3)c2N)c1` on MOLM-13 gives MOLM-13 %inh = 29.95

`Cc1cc(C)c2c(n1)sc1c(N)ncnc12` on MOLM-13 gives MOLM-13 %inh = -1.383

`COc1cccc(/C=N/Nc2ncnc3c2cnn3-c2cccc(OC)c2)c1` on MOLM-13 gives MOLM-13 %inh = 0.5296

`CNC(=O)c1sc(-n2cnc3cc(OC)c(OC)cc32)cc1OCc1ccccc1C(F)(F)F` on MOLM-13 gives MOLM-13 %inh = 15.4

NC[C@H](CC(=O)O)c1ccc(Cl)cc1 (racemic) on MOLM-13 gives MOLM-13 %inh = 8.873

Continuing:
`NS(=O)(=O)c1ccc(Nc2cc(-c3cccc(O)c3)n[nH]2)cc1` on MOLM-13 gives MOLM-13 %inh = 21.76

`[O-][S+]1CCN(Cc2ccc(-c3ccc4ncnc(Nc5ccc(OCc6ccccc6)c(Cl)c5)c4c3)o2)CC1` on MOLM-13 gives MOLM-13 %inh = 4.138

---

Listing of entries alongside the reported MOLM-13 %inh.
# Test system: MOLM-13
# Parameters: species or system AML cell lines (8); Primary HTS, single concentration about 10 uM, Cell Titer Glo viability; log10 luminescence, per cent inhibition relative to cycloheximide control
# condition: 72 h, relative to cycloheximide control, log10 luminescence, inhibitor, MOLM-13 %inh, 10 µM
Counter-ions that a name gives are not always drawn.
Value and unit, in that order.

Example cases with answers are listed next.
get_value(item= `Cc1ccc(C)c(OCCCC(C)(C)C(=O)O)c1` , readout=MOLM-13 %inh) returns 2.26%

get_value(item= CN[C@@H]1[C@H](O[C@H]2[C@H](O[C@H]3[C@H](O)[C@@H](O)[C@H](N=C(N)N)[C@@H](O)[C@@H]3N=C(N)N)O[C@@H](C)[C@]2(O)C=O)O[C@@H](CO)[C@H](O)[C@H]1O [SJ000285297-5, STREPTOMYCIN SULFATE] , readout=MOLM-13 %inh) returns 2.09%

get_value(item= O=[N+]([O-])c1ccc(Oc2ccc(Br)cc2)c(C(O)P(=O)(O)O)c1 (single isomer, unassigned) , readout=MOLM-13 %inh) returns 9.917%

get_value(item= CCCCNc1cc(C(=O)O)cc(S(N)(=O)=O)c1Oc1ccccc1 [SJ000285893-8, BUMETANIDE] , readout=MOLM-13 %inh) returns 2.916%

Switching to the query record.
get_value(item= `Nc1ccc(S(=O)(=O)Nc2ccccn2)cc1` , readout=MOLM-13 %inh) returns -2.284%
